List of Ki values.
Target: UniProt:P22413
Sequence (P22413 whole entry): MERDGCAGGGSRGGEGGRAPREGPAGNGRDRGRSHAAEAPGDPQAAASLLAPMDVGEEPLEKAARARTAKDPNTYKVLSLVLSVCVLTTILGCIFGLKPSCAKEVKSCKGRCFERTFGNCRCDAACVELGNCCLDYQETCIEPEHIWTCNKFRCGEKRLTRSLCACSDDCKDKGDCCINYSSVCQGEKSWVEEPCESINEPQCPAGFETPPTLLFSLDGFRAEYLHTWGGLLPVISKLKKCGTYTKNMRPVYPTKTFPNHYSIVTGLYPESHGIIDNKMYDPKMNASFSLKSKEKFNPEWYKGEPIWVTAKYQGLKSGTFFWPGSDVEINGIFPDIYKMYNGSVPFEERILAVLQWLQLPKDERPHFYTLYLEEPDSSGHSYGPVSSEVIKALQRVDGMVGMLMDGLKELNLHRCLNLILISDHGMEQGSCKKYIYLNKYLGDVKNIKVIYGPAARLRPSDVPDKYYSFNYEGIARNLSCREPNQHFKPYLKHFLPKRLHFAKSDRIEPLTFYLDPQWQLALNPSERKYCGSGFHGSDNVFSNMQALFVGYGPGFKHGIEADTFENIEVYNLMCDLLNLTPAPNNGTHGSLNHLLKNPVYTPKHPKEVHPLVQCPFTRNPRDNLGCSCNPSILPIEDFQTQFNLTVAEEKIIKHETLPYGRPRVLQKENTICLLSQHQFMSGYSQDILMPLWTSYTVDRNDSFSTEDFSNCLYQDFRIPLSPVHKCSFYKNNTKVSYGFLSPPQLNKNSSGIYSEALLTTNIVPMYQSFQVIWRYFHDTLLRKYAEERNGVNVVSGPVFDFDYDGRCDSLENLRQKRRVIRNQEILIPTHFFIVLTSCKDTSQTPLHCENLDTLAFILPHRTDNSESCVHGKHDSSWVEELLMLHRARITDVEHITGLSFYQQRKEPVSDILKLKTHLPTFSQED
Assay: Capillary electrophoresis-based NPP assay with ATP as a substrate (ENPP1 inhibition, Ki)
Type: biochemical
Conditions: bin of Table 2; Ki from IC50 by Cheng-Prusoff, 400 μM ATP

COc1ccnc(NC(=O)[C@H](Sc2nc(N)nc3nc[nH]c23)C(C)C)n1 = ≤ 100 nM
CC(C)Oc1nc(NC(=O)C(C)(C)Sc2nc(N)nc3nc[nH]c23)ncc1Br = ≤ 100 nM
CC[C@@H](Sc1nc(N)nc2nc[nH]c12)C(=O)Nc1nc(Cl)cc(OC)n1 = ≤ 100 nM
CC(C)[C@H](Sc1nc(N)nc2nc[nH]c12)C(=O)Nc1ccc(O)c(C(=O)O)c1 = ≤ 100 nM
CCC(Sc1nc(N)nc2nc[nH]c12)C(=O)Nc1ccc(O)c(C(=O)O)c1 (stereo not shown) = ≤ 100 nM

Requested read-out Ki, target or system UniProt:P22413, entry COc1ccnc(NC(=O)[C@H](Cc2ccccc2)Sc2nc(N)nc3nc[nH]c23)n1
≤ 100 nM

Ki of CC(=O)c1cc(NC(=O)CSc2nc(N)nc3nc[nH]c23)ccc1O on UniProt:P22413?
≤ 100 nM

====

Target: UniProtKB P22413
Assay: Capillary electrophoresis-based NPP assay with ATP as a substrate (ENPP1 inhibition, Ki)
Assay type: biochemical
Settings: bin of Table 2; Ki from IC50 by Cheng-Prusoff, 400 μM ATP
Procedure: Here, a Capillary Electrophoresis based method was used to determine the IC50 values for ENPP1 Inhibitors for ENNP1 protein. The inhibitors synthesized were assessed for ENPP1 inhibitory potency against the natural substrate ATP. […] Finally, the reaction mixtures were directly measured by capillary electrophoresis (CE). […] The amounts of AMP produced were measured at 260 nm. […]
pKi: −log10 of the molar value.
endpoint label: pKi

// below: answered compounds
Nc1nc(S[C@@H](CCc2ccccc2)C(=O)Nc2ccc(O)c(C(=O)O)c2)c2[nH]cnc2n1 = ≥ 7.00
COc1nc(NC(=O)[C@@H](Cc2ccccc2)Sc2nc(N)nc3nc[nH]c23)ncc1Cl = ≥ 7.00
COc1nc(NC(=O)C2(Sc3nc(N)nc4nc[nH]c34)CCC2)ncc1Br = ≥ 7.00
COc1ccnc(NC(=O)C(C)(C)Sc2nc(N)nc3nc[nH]c23)n1 = ≥ 7.00
COc1ccc(NC(=O)[C@@H](C)Sc2nc(N)nc3nc[nH]c23)nc1OC = ≥ 7.00
COc1ccnc(NC(=O)CSc2nc(N)nc3nc[nH]c23)n1 = ≥ 7.00

Bench note: what pKi did Nc1nc(SCC(=O)Nc2ccc(O)c(C(=O)O)c2)c2[nH]cnc2n1 show?
≥ 7.00

Which pKi is listed for COc1ccnc(NC(=O)[C@@H](CCc2ccccc2)Sc2nc(N)nc3nc[nH]c23)n1 ?
≥ 7.00
